Values compiled from patent US11590089B2.

- measuredTarget: β2-AR (Homo sapiens, UniProt P07550)
- assayNotes: β-arrestin-2 recruitment assay at β2-AR
- Type: cell-based
- measurementConditions: n.d. = could not be determined because of lack of activity; ranges from screening experiments with a low number of repeats; read-out: β-arrestin-2 recruitment β2-AR EC50
- Sequence (P07550 whole entry): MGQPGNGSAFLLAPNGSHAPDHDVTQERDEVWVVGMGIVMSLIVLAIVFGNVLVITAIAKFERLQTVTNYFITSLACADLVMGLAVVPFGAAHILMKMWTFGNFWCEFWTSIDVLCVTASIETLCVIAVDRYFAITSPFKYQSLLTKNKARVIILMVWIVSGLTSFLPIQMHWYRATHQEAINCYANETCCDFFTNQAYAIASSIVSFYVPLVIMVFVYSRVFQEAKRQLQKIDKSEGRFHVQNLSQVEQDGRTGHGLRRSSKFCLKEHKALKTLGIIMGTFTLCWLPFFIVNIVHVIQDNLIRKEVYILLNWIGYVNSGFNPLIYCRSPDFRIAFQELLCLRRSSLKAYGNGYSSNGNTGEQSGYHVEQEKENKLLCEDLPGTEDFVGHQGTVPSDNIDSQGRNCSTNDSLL
- Sequence (P32121 whole entry partner): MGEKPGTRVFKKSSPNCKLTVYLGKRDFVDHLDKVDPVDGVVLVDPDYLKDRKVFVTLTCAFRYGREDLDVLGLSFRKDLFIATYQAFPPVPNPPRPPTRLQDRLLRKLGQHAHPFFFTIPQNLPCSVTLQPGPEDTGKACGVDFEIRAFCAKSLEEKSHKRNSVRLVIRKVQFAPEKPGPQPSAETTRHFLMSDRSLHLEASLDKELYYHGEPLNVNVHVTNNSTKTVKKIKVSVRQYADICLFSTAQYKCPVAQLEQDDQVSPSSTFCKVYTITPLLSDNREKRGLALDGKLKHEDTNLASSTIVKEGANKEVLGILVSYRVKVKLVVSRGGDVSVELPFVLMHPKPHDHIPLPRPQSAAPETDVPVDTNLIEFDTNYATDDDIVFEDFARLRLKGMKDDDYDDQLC
pEC50: −log10 of the molar value.
Values of pEC50 greater than or equal to 6 map to True; values below map to False.

As a guide, the following entries are already answered.
{"compound": "O=C(O)C(F)(F)F.Oc1ccc2c(c1O)CC[C@@H](NC1CCCC1)[C@@H]2O", "group": "True"}
{"compound": "Oc1ccc2c(c1O)CC[C@@H](NCCCF)[C@@H]2O", "group": "True"}
{"compound": "O=C(O)C(F)(F)F.Oc1ccc2c(c1O)CC[C@H](NC1CCCC1)[C@H]2O", "group": "True"}

Is reported pEC50 greater than or equal to 6 here: `Oc1ccc2c(c1O)CC[C@@H](NC(CF)CF)[C@@H]2O`
True

Is reported pEC50 greater than or equal to 6 here: NC1CCc2c(ccc(O)c2O)C1 (single isomer, unassigned) [AS LM28]
False

Is reported pEC50 greater than or equal to 6 here: `CN[C@@H]1CCc2c(ccc(O)c2O)[C@H]1O`
True

Is reported pEC50 greater than or equal to 6 here: CNC1CCc2c(ccc(O)c2O)C1 (racemic)
False

Is reported pEC50 greater than or equal to 6 here: `Oc1ccc2c(c1O)CC[C@@H](NCCF)[C@@H]2O`
True

* * *

- measuredTarget: UniProt P08588
- assayNotes: β-arrestin-2 recruitment assay at β1-AR
- Format: cell-based
- measurementConditions: relative to norepinephrine
Values of β-arrestin-2 recruitment β1-AR Emax greater than or equal to 60 % norepinephrine map to y; values below map to n.

As a guide, the following entries are already answered.
{"compound": "N[C@@H]1CCc2c(ccc(O)c2O)[C@H]1O [AS446]", "group": "n"}
{"compound": "CNC1CCc2cc(O)c(O)cc2C1 (racemic) [AS LM31]", "group": "n"}
{"compound": "NC1CCc2c(ccc(O)c2O)C1 (single isomer, unassigned) [AS LM27]", "group": "n"}
{"compound": "CC(C)(C)CN[C@@H]1CCc2c(ccc(O)c2O)[C@H]1O [LM 117]", "group": "n"}
{"compound": "Oc1ccc2c(c1O)CC[C@@H](NCCCF)[C@@H]2O [LM 75]", "group": "y"}
{"compound": "NC[C@H](O)c1ccc(O)c(O)c1 [noradrenaline, reference compound]", "group": "y"}
{"compound": "N[C@H]1CCc2cc(O)c(O)cc2C1 [AS LM15]", "group": "n"}
{"compound": "CNC1CCc2c(ccc(O)c2O)C1 (racemic) [AS LM33]", "group": "n"}

Is reported β-arrestin-2 recruitment β1-AR Emax greater than or equal to 60 % norepinephrine here: Oc1ccc2c(c1O)CC[C@@H](NCC1CC(F)(F)C1)[C@@H]2O [LM 112]
n

* * *

- measuredTarget: β1-AR (Homo sapiens, UniProt P08588)
- Sequence (P08588 whole entry): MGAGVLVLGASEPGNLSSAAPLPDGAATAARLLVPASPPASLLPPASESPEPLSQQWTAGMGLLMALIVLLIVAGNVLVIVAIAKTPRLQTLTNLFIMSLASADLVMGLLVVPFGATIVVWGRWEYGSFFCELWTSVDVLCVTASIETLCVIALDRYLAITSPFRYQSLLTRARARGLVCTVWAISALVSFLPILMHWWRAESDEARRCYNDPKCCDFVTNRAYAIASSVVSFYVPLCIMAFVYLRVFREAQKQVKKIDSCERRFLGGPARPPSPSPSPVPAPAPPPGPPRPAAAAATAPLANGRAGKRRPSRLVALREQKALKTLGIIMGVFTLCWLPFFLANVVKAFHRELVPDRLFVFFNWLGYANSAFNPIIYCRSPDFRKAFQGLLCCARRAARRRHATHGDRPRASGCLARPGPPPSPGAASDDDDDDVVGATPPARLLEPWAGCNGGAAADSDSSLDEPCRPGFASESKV
- Sequence (P32121 whole entry partner): as the sequence (P32121 whole entry partner) above
- assayNotes: β-arrestin-2 recruitment assay at β1-AR
- Assay type: cell-based
- measurementConditions: n.d. = could not be determined because of lack of activity; ranges from screening experiments with a low number of repeats; read-out: β-arrestin-2 recruitment β1-AR EC50
Entries and their measured pEC50 follow.
Recall that pEC50 is obtained by taking minus log10 of the concentration measured in molar.

Below are worked cases with known answers.
{"compoundStructureString": "Oc1ccc2c(c1O)CC[C@@H](NCCF)[C@@H]2O", "pEC50": 5.52}
{"compoundStructureString": "Oc1ccc2c(c1O)CC[C@@H](NCCCF)[C@@H]2O", "pEC50": 5.00}
{"compoundStructureString": "CN[C@@H]1CCc2c(ccc(O)c2O)[C@H]1O", "pEC50": 4.42}
{"compoundStructureString": "N[C@@H]1CCc2c(ccc(O)c2O)[C@H]1O", "pEC50": 4.74}
{"compoundStructureString": "Oc1ccc2c(c1O)CC[C@@H](NC(CF)CF)[C@@H]2O", "pEC50": 4.92}

Alright, here's another compound for you.
Entry under review: `Oc1ccc2c(c1O)CC[C@@H](NCC1CCC1)[C@@H]2O` . Reported pEC50?
4.66

* * *

- measuredTarget: β2-AR (Homo sapiens)
- assayNotes: radioligand binding assay, β2-AR, [3H]CGP12177
- measurementConditions: read-out: Ki β2-AR [3H]CGP12177
- Sequence (P07550 whole entry): as the sequence (P07550 whole entry) above
Counter-ions that a name gives are not always drawn.
testReadout: pKi
Recall that pKi is obtained by taking minus log10 of the concentration measured in molar.

Entry under review: CC(C)N[C@@H]1CCc2c(ccc(O)c2O)[C@H]1O [AS424A, TFA] . Reported pKi?
7.49

* * *

- measuredTarget: β2-AR (Homo sapiens, UniProt P07550)
- assayNotes: radioligand binding assay, β2-AR, [3H]CGP12177
- measurementConditions: Ki β2-AR [3H]CGP12177
Counter-ions that a name gives are not always drawn.
testReadout: pKi
Recall that pKi is obtained by taking minus log10 of the concentration measured in molar.

{"compound": "CC(C)N[C@H]1CCc2c(ccc(O)c2O)[C@H]1O [AS424B, TFA]", "pKi": 6.35}

So what pKi did `CC(C)N[C@H]1CCc2c(ccc(O)c2O)[C@@H]1O` get with β2-AR (Homo sapiens, UniProt P07550)?
6.43

So what pKi did `CC(C)N[C@@H]1CCc2c(ccc(O)c2O)[C@@H]1O` get with β2-AR (Homo sapiens, UniProt P07550)?
5.72

* * *

- measuredTarget: β2-AR (Homo sapiens, UniProt P07550)
- assayNotes: radioligand binding assay, β2-AR, [3H]CGP12177
- measurementConditions: radioligand [3H]CGP12177; values given as a range are from screening experiments with a low number of repeats; read-out: Ki β2-AR [3H]CGP12177
testReadout: pKi
Recall that pKi is obtained by taking minus log10 of the concentration measured in molar.

{"compound": "N[C@@H]1CCc2c(ccc(O)c2O)[C@H]1O", "measuredTarget": "β2-AR (Homo sapiens, UniProt P07550)", "number": 6.17}
{"compound": "O=C(O)C(F)(F)F.Oc1ccc2c(c1O)CC[C@@H](NC1CCCC1)[C@@H]2O", "measuredTarget": "β2-AR (Homo sapiens, UniProt P07550)", "number": 7.60}
{"compound": "NC1CCc2c(ccc(O)c2O)C1 (single isomer, unassigned) [AS LM28]", "measuredTarget": "β2-AR (Homo sapiens, UniProt P07550)", "number": 4.54}

Entry under review: `O=C(O)C(F)(F)F.Oc1ccc2c(c1O)CC[C@H](NC1CCCC1)[C@H]2O` . Reported pKi?
6.62

* * *

- measuredTarget: β2-AR (Homo sapiens)
- assayNotes: β-arrestin-2 recruitment assay at β2-AR
- Type: cell-based
- measurementConditions: relative to norepinephrine
Where a name gives a salt, the structure may show the parent alone.
Entries and their measured β-arrestin-2 recruitment β2-AR Emax follow.
Unit % norepinephrine implied. Number only.

Below are worked cases with known answers.
{"compound": "Oc1ccc2c(c1O)CC[C@@H](NCC1CCC1)[C@@H]2O", "measuredTarget": "β2-AR (Homo sapiens)", "resultUnit": "% norepinephrine", "β-arrestin-2 recruitment β2-AR Emax": 116}
{"compound": "NC[C@H](O)c1ccc(O)c(O)c1 [noradrenaline, reference compound]", "measuredTarget": "β2-AR (Homo sapiens)", "resultUnit": "% norepinephrine", "β-arrestin-2 recruitment β2-AR Emax": 100}
{"compound": "CC(C)N[C@H]1CCc2c(ccc(O)c2O)[C@H]1O [AS424B, TFA]", "measuredTarget": "β2-AR (Homo sapiens)", "resultUnit": "% norepinephrine", "β-arrestin-2 recruitment β2-AR Emax": 91}
{"compound": "Oc1ccc2c(c1O)CC[C@@H](NC1COC1)[C@@H]2O", "measuredTarget": "β2-AR (Homo sapiens)", "resultUnit": "% norepinephrine", "β-arrestin-2 recruitment β2-AR Emax": 115}

Entry under review: CNC1CCc2cc(O)c(O)cc2C1 (racemic) . Reported β-arrestin-2 recruitment β2-AR Emax?
22

Entry under review: `CC(C)(C)CN[C@@H]1CCc2c(ccc(O)c2O)[C@H]1O` . Reported β-arrestin-2 recruitment β2-AR Emax?
116

Entry under review: CNC1CCc2c(ccc(O)c2O)C1 (racemic) . Reported β-arrestin-2 recruitment β2-AR Emax?
125

Entry under review: `Oc1ccc2c(c1O)CC[C@@H](NC(CF)CF)[C@@H]2O` . Reported β-arrestin-2 recruitment β2-AR Emax?
109

Entry under review: `CN[C@@H]1CCc2c(ccc(O)c2O)[C@H]1O` . Reported β-arrestin-2 recruitment β2-AR Emax?
112

Entry under review: NC1CCc2c(ccc(O)c2O)C1 (single isomer, unassigned) [AS LM27] . Reported β-arrestin-2 recruitment β2-AR Emax?
84

Entry under review: `Oc1ccc2c(c1O)CC[C@@H](NCC1CC(F)(F)C1)[C@@H]2O` . Reported β-arrestin-2 recruitment β2-AR Emax?
124

Entry under review: `O=C(O)C(F)(F)F.Oc1ccc2c(c1O)CC[C@@H](NC1CCCC1)[C@@H]2O` . Reported β-arrestin-2 recruitment β2-AR Emax?
97

Entry under review: NC1CCc2c(ccc(O)c2O)C1 (single isomer, unassigned) [AS LM28] . Reported β-arrestin-2 recruitment β2-AR Emax?
77

Entry under review: `Oc1ccc2c(c1O)CC[C@@H](NCCF)[C@@H]2O` . Reported β-arrestin-2 recruitment β2-AR Emax?
110

Entry under review: `CC(C)N[C@@H]1CCc2c(ccc(O)c2O)[C@@H]1O` . Reported β-arrestin-2 recruitment β2-AR Emax?
100

Entry under review: `Oc1ccc2c(c1O)CC[C@@H](NCCCF)[C@@H]2O` . Reported β-arrestin-2 recruitment β2-AR Emax?
111

Entry under review: `O=C(O)C(F)(F)F.Oc1ccc2c(c1O)CC[C@H](NC1CCCC1)[C@H]2O` . Reported β-arrestin-2 recruitment β2-AR Emax?
93

Entry under review: `N[C@@H]1CCc2c(ccc(O)c2O)[C@H]1O` . Reported β-arrestin-2 recruitment β2-AR Emax?
107

Entry under review: CC(C)N[C@@H]1CCc2c(ccc(O)c2O)[C@H]1O [AS424A, TFA] . Reported β-arrestin-2 recruitment β2-AR Emax?
103

Entry under review: `C[Si](C)(C)CN[C@@H]1CCc2c(ccc(O)c2O)[C@H]1O` . Reported β-arrestin-2 recruitment β2-AR Emax?
119

Entry under review: `COCC(COC)N[C@@H]1CCc2c(ccc(O)c2O)[C@H]1O` . Reported β-arrestin-2 recruitment β2-AR Emax?
125
